Biological target: rat EP2 receptor (Rattus norvegicus, UniProt Q62928)
Construct: cells seeded on STEP plates
Sequence (Q62928 whole entry): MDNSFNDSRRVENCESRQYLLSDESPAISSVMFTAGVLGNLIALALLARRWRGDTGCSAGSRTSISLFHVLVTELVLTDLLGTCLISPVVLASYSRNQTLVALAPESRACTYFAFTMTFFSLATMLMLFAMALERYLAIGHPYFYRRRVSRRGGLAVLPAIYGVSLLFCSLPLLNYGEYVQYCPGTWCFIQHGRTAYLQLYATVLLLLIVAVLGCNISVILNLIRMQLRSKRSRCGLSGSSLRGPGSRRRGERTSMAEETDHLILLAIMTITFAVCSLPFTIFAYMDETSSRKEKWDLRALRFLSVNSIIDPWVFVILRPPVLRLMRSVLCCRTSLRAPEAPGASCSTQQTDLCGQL
Experiment: SEAP activity assay on EP2 STEP plate
Conditions: SEAP luminescence, 6-8 hours of stimulation; read-out: STEP cell functional assay EC50 SEAP/EP2
readout.name: EC50

>>> obs_value("CC(CC#Cc1ccccc1)[C@@H](O)/C=C/[C@H]1CCC(=O)N1C/C=C\\c1ccc(C(=O)O)s1 (mixture of isomers) [Example 16D]")
"> 10 µM"
>>> obs_value("CCC#CCC(C)[C@H](O)/C=C/[C@H]1CCC(=O)N1CCCCCCC(=O)O (mixture of isomers) [Example 2C]")
"0.905 µM"
>>> obs_value("CC(CC#Cc1ccccc1)[C@@H](O)/C=C/[C@H]1CCC(=O)N1CCCc1ccc(C(=O)O)s1 (stereo partly shown) [Example 18D]")
"> 10 µM"

## Input Identify measured EC50 associated with COC(=O)CCCCCCN1C(=O)CC[C@@H]1/C=C/[C@@H](O)CCC#Cc1ccccc1 (single isomer, unassigned) [Example 5A]
## Output > 10 µM
